Source: patent US20090300802A1

Experimental target: T1, AtPEPR1 (Arabidopsis thaliana, UniProt Q9SSL9 29-1123, glycosylated (about 180 kD, about 150 kD after PNGase F))
T1 construct: Tested on Arabidopsis suspension cultured cells, in Arabidopsis microsomal membranes and on transgenic tobacco cells (CaMV 35S-AtPEPR1); Arabidopsis cells may also carry AtPEPR2; also called AtPep1 receptor; At1g73080
T1 sequence: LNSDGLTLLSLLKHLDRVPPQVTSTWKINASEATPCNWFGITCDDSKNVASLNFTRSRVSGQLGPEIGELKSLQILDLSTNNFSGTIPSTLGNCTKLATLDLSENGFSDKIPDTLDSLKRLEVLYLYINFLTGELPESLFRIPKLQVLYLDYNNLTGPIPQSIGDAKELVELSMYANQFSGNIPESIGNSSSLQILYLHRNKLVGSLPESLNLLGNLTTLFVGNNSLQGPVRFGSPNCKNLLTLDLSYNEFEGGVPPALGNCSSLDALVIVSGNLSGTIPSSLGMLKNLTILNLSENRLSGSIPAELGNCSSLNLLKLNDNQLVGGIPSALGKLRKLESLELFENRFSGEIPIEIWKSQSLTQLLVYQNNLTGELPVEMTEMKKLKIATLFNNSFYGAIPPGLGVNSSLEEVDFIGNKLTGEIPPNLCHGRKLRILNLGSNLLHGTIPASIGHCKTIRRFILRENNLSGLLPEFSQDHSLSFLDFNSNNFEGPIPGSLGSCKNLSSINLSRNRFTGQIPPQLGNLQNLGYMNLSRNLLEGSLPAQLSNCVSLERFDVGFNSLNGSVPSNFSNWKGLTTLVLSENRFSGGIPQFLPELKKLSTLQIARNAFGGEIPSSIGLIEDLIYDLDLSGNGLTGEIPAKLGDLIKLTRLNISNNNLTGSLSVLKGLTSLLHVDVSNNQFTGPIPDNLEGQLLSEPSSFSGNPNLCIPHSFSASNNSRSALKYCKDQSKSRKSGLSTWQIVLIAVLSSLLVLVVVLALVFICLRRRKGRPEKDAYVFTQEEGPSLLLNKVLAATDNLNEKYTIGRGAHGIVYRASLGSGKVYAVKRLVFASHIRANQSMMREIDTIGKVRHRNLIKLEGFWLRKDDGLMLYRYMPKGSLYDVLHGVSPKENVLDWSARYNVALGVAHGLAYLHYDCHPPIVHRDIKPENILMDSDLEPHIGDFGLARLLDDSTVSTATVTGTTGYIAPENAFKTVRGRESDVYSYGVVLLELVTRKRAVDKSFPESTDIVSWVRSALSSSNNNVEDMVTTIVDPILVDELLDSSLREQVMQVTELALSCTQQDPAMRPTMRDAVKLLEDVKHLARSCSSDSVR
Assay method text: saturation binding of radiolabeled peptide to Arabidopsis suspension cultured cells, Scatchard analysis
No end group written: not given here. *: point of attachment. 125I = [125I]*
Recorded metric: Kd (nM)
Number in nM, nothing else.

Query: // returns reported Kd for input Y(125I)ATKVKAKQRGKEKVSSGRPGQHN (also called mono-iodinated Tyr-AtPep1) [125I1-Tyr-AtPep1]
Response: 0.25
